test system: K98450-129-R-PDC multicell spheroids, viability; assay: Anticancer human tumor K98450-129-R-PDC patient-derived colon adenocarcinoma cell line growth inhibition [PI3K]; conditions: second compound 3.16 µM; first compound 0.0316 µM; stronger effect = lower value
ASSAY_METRIC: viability, T/C (%)
Quick reminder: number only, in %, skip the unit.

Example compounds with recorded viability, T/C:
* CNC(=O)c1ccc(N2C(=S)N(c3ccc(C#N)c(C(F)(F)F)c3)C(=O)C2(C)C)cc1F + CC(Nc1ncnc2nc[nH]c12)c1cc2cccc(Cl)c2c(=O)n1-c1ccccc1 | 83.1
* C[C@@H](NC(=O)c1ncnc(N)c1Cl)c1ncc(C(=O)Nc2cc(C(F)(F)F)c(Cl)cn2)s1 + Cc1nc(NC(=O)N2CCCC2C(N)=O)sc1-c1ccnc(C(C)(C)C(F)(F)F)c1 | 84.8
* Cn1nccc1Nc1nccc(-c2ccn(C(CO)c3ccc(Cl)c(F)c3)c(=O)c2)n1 (stereo unspecified) + CC(Nc1ncnc2nc[nH]c12)c1cc2cccc(Cl)c2c(=O)n1-c1ccccc1 | 79.2
* Cn1ncc(Cl)c1-c1cc(C(=O)NC(CN)Cc2cccc(F)c2)sc1Cl (stereo unspecified) + Cc1nc(NC(=O)N2CCCC2C(N)=O)sc1-c1ccnc(C(C)(C)C(F)(F)F)c1 | 82.9
* CC(=O)c1c(C)c2cnc(Nc3ccc(N4CCNCC4)cn3)nc2n(C2CCCC2)c1=O + CC(Nc1ncnc2nc[nH]c12)c1cc2cccc(Cl)c2c(=O)n1-c1ccccc1 | 96.9
* CC(Cn1ccc(-c2ccc(C#N)c(Cl)c2)n1)NC(=O)c1cc(C(C)O)[nH]n1 (stereo unspecified) + CC(Nc1ncnc2nc[nH]c12)c1cc2cccc(Cl)c2c(=O)n1-c1ccccc1 | 72.7
* Cn1ncnc1[C@H]1c2n[nH]c(=O)c3cc(F)cc(c23)N[C@@H]1c1ccc(F)cc1 + CC(Nc1ncnc2nc[nH]c12)c1cc2cccc(Cl)c2c(=O)n1-c1ccccc1 | 102
* C[C@@H](NC(=O)c1ncnc(N)c1Cl)c1ncc(C(=O)Nc2cc(C(F)(F)F)c(Cl)cn2)s1 + CC(Nc1ncnc2nc[nH]c12)c1cc2cccc(Cl)c2c(=O)n1-c1ccccc1 | 92.3
* Cn1nccc1Nc1nccc(-c2ccn(C(CO)c3ccc(Cl)c(F)c3)c(=O)c2)n1 (stereo unspecified) + Cc1nc(NC(=O)N2CCCC2C(N)=O)sc1-c1ccnc(C(C)(C)C(F)(F)F)c1 | 78.9
* CC(C)NCC(C(=O)N1CCN(c2ncnc3c2C(C)CC3O)CC1)c1ccc(Cl)cc1 (stereo unspecified) + CC(Nc1ncnc2nc[nH]c12)c1cc2cccc(Cl)c2c(=O)n1-c1ccccc1 | 79.2

Data request: Hi! What's the reported viability, T/C for C=CC(=O)N1CCN(c2nc(=O)n(-c3c(C)ccnc3C(C)C)c3nc(-c4c(O)cccc4F)c(F)cc23)C(C)C1 (stereo unspecified) + CC(Nc1ncnc2nc[nH]c12)c1cc2cccc(Cl)c2c(=O)n1-c1ccccc1 on K98450-129-R-PDC multicell spheroids, viability?
Data returned: 93.5

====

# reported viability, T/C; entries follow
tested on: K98450-129-R-PDC multicell spheroids, viability; assay: Anticancer human tumor K98450-129-R-PDC cell line growth inhibition [PI3K]; conditions: second compound 0.0316 µM; first compound 3.16 µM; stronger effect = lower value;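 further: spheroids exposed to agents for seven days before read-out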
Quick reminder: number only, in %, skip the unit.

Example compounds with recorded viability, T/C:
• CC1(C)CCC(CN2CCN(c3ccc(C(=O)NS(=O)(=O)c4ccc(NCC5CCOCC5)c([N+](=O)[O-])c4)c(Oc4cnc5[nH]ccc5c4)c3)CC2)=C(c2ccc(Cl)cc2)C1 + CC(Nc1ccc2c(c1)OCCn1cc(N3C(=O)OCC3C(F)F)nc1-2)C(N)=O = 99.8
• C#Cc1c(F)ccc2cc(O)cc(-c3ncc4c(N5CC6CCC(C5)N6)nc(OCC56CCCN5CC(F)C6)nc4c3F)c12 (stereo not drawn) + CC(Nc1ncnc2nc[nH]c12)c1cc2cccc(Cl)c2c(=O)n1-c1ccccc1 = 90.9

Shifting focus to the compound that follows.
Data request: viability, T/C lookup needed for CCCS(=O)(=O)Nc1ccc(F)c(C(=O)c2c[nH]c3ncc(-c4ccc(Cl)cc4)cc23)c1F + COc1c(OCCCN2CCOCC2)ccc2c3n(c(=NC(=O)c4cnc(N)nc4)nc12)CCN3 , thanks.
Data returned: 91.6

====

test system: K98450-129-R-PDC multicell spheroids, viability; test: Anticancer human tumor K98450-129-R-PDC cell line growth inhibition [PI3K]; settings: second compound 0.01 µM; first compound 10 µM; stronger effect = lower value;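 further: spheroids exposed to agents for seven days before read-out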
# reported viability, T/C; entries follow
Quick reminder: number only, in %, skip the unit.

Example molecules with recorded viability, T/C:
• CC1(C)CCC(Nc2ncc(C(F)(F)F)c(-c3c[nH]c4c(P(C)(C)=O)c(C#N)ccc34)n2)CN1 (stereo not given) + CC(Nc1ccc2c(c1)OCCn1cc(N3C(=O)OCC3C(F)F)nc1-2)C(N)=O = 62.2
• Cn1nccc1Nc1nccc(-c2ccn(C(CO)c3ccc(Cl)c(F)c3)c(=O)c2)n1 (stereo not given) + CC(Nc1ccc2c(c1)OCCn1cc(N3C(=O)OCC3C(F)F)nc1-2)C(N)=O = 88.7
• CC1(C)CCC(Nc2ncc(C(F)(F)F)c(-c3c[nH]c4c(P(C)(C)=O)c(C#N)ccc34)n2)CN1 (stereo not given) + COc1c(OCCCN2CCOCC2)ccc2c3n(c(=NC(=O)c4cnc(N)nc4)nc12)CCN3 = 48.8

Data request: viability, T/C lookup needed for CNC(=O)c1ccc(N2C(=S)N(c3ccc(C#N)c(C(F)(F)F)c3)C(=O)C2(C)C)cc1F + CC(Nc1ccc2c(c1)OCCn1cc(N3C(=O)OCC3C(F)F)nc1-2)C(N)=O , thanks.
Data returned: 117

Data request: viability, T/C lookup needed for CC(Cn1ccc(-c2ccc(C#N)c(Cl)c2)n1)NC(=O)c1cc(C(C)O)[nH]n1 (stereo not given) + CC(Nc1ccc2c(c1)OCCn1cc(N3C(=O)OCC3C(F)F)nc1-2)C(N)=O , thanks.
Data returned: 111

====

tested on: K98450-129-R-PDC multicell spheroids, viability; test: Anticancer human tumor K98450-129-R-PDC cell line growth inhibition [PI3K]; conditions: curve of first compound; second compound 1 µM;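 further: spheroids exposed to agents for seven days before read-out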
pIC50: −log10 of the molar value.
ASSAY_METRIC: pIC50

• CCN1CCN(Cc2ccc(Nc3ncc(F)c(-c4cc(F)c5nc(C)n(C(C)C)c5c4)n3)nc2)CC1 + CC(Nc1ccc2c(c1)OCCn1cc(N3C(=O)OCC3C(F)F)nc1-2)C(N)=O = < 6.00
• Cn1cnc2c(F)c(Nc3ccc(Br)cc3Cl)c(C(=O)NOCCO)cc21 + CC(Nc1ncnc2nc[nH]c12)c1cc2cccc(Cl)c2c(=O)n1-c1ccccc1 = 6.16

Shifting focus to the compound that follows.
Data request: pIC50 lookup needed for CC(Cn1ccc(-c2ccc(C#N)c(Cl)c2)n1)NC(=O)c1cc(C(C)O)[nH]n1 (stereo not drawn) + Cc1nc(NC(=O)N2CCCC2C(N)=O)sc1-c1ccnc(C(C)(C)C(F)(F)F)c1 , thanks.
Data returned: < 5.00

====

# reported viability, T/C; entries follow
system: K98450-129-R-PDC multicell spheroids, viability; assay: Anticancer human tumor K98450-129-R-PDC cell line growth inhibition [PI3K]; settings: second compound 3.16 µM; first compound 0.1 µM; stronger effect = lower value;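 further: spheroids exposed to agents for seven days before read-out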
Quick reminder: number only, in %, skip the unit.

Example compounds with recorded viability, T/C:
* CC1(C)CCC(CN2CCN(c3ccc(C(=O)NS(=O)(=O)c4ccc(NCC5CCOCC5)c([N+](=O)[O-])c4)c(Oc4cnc5[nH]ccc5c4)c3)CC2)=C(c2ccc(Cl)cc2)C1 + CC(Nc1ncnc2nc[nH]c12)c1cc2cccc(Cl)c2c(=O)n1-c1ccccc1 | 105
* CCCS(=O)(=O)Nc1ccc(F)c(C(=O)c2c[nH]c3ncc(-c4ccc(Cl)cc4)cc23)c1F + Cc1nc(NC(=O)N2CCCC2C(N)=O)sc1-c1ccnc(C(C)(C)C(F)(F)F)c1 | 85.8
* C#Cc1c(F)ccc2cc(O)cc(-c3ncc4c(N5CC6CCC(C5)N6)nc(OCC56CCCN5CC(F)C6)nc4c3F)c12 (stereo not given) + CC(Nc1ncnc2nc[nH]c12)c1cc2cccc(Cl)c2c(=O)n1-c1ccccc1 | 89.9
* Cn1ncc(Cl)c1-c1cc(C(=O)NC(CN)Cc2cccc(F)c2)sc1Cl (stereo not given) + CC(Nc1ncnc2nc[nH]c12)c1cc2cccc(Cl)c2c(=O)n1-c1ccccc1 | 94.5

Shifting focus to the compound that follows.
Data request: viability, T/C lookup needed for C=CC(=O)N1CCN(c2nc(=O)n(-c3c(C)ccnc3C(C)C)c3nc(-c4c(O)cccc4F)c(F)cc23)C(C)C1 (stereo not given) + Cc1nc(NC(=O)N2CCCC2C(N)=O)sc1-c1ccnc(C(C)(C)C(F)(F)F)c1 , thanks.
Data returned: 85
